target: hGITR ECD hFc (human, UniProt Q9Y5U5 26-161, Thr45Ala); experiment: SPR
Sequence (Q9Y5U5 26-161 T45A): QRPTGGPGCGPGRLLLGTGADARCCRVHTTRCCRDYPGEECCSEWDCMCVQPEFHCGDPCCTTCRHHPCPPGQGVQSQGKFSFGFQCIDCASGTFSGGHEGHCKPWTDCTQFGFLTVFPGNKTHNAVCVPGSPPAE
The reader will find reported koff values listed item by item below.

Before answering, review these 3 worked examples.
Using the record for hab070e1 (antibody, V domains shown) VH: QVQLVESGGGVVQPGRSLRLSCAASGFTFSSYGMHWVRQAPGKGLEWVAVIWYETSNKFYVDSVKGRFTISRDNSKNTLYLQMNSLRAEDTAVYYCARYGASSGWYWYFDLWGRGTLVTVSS VL: DIQLTQSPSFLSASVGDRVTITCRASQGISSFLAWYQQKPGKAPKLLIYAASTLQSGVPSRFSGSGSGTEFTLTISSLQPEDFATYYCQQLNSYPFTFGQGTKLEIK , report its koff.
0.000381 s⁻¹

And what about the binder hab064 (antibody, V domains shown) VH: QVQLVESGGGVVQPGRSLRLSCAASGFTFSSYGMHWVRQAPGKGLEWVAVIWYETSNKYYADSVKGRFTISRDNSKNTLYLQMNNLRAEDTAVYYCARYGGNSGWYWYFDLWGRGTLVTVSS VL: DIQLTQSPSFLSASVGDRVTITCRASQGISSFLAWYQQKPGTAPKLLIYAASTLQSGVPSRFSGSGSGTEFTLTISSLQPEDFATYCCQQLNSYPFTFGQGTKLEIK ?
0.000315 s⁻¹

And what about the binder hab076 (antibody, V domains shown) VH: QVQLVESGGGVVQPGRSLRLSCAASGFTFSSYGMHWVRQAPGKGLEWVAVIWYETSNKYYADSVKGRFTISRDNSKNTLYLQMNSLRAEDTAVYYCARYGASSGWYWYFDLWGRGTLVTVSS VL: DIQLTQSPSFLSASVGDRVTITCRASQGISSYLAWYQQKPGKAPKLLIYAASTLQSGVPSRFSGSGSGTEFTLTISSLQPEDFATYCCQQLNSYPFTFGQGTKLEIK ?
0.000684 s⁻¹

Now consider the entry below.
Using the record for hab070 (antibody, V domains shown) VH: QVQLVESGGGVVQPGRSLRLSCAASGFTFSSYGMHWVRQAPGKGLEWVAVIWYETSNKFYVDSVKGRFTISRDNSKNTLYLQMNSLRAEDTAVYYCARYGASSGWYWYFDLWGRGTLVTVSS VL: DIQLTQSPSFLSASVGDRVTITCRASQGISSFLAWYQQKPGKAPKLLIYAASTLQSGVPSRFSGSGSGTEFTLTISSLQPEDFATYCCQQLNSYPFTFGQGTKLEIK , report its koff.
0.000185 s⁻¹

Measured values drawn from paper PMC9340783 for this set.
